- testedTarget: UniProt:P00734
- protocolDetails: Enzyme Inhibition Assay
readoutType: IC50

>  <compound>
CN[C@H](Cc1ccccc1)C(=O)N1CCC[C@H]1C(=O)N[C@H](CC(=O)c1nc2ccccc2s1)C1CCC(N)CC1 (stereo partly drawn)

>  <IC50>
> 100 µM

$$$$

Value sought for every listed compound: IC50.
1. CNCCCC[C@@H](NC(=O)[C@@H]1CCCN1C(=O)[C@@H](Cc1ccccc1)NC)C(=O)c1nc2ccccc2s1
2. NC(N)=NCCCC(NC(=O)[C@@H]1CCCN1C(=O)C1(O)c2ccccc2-c2ccccc21)C(=O)c1nc2ccccc2s1 (stereo partly drawn)
3. CN[C@H](Cc1ccccc1)C(=O)N1CCC[C@H]1C(=O)NC(CCCN=C(N)N)C(=O)c1nccn1C (stereo partly drawn)
4. CN[C@H](Cc1ccccc1)C(=O)N1CCC[C@H]1C(=O)N[C@@H](CCCNC(=N)N)C(=O)c1cc2ccccc2s1
5. CCS(=O)(=O)N[C@H](Cc1ccccc1)C(=O)N1CCC[C@H]1C(=O)N[C@@H](C(=O)c1nc2ccccc2s1)C1CCC(N)CC1 (stereo partly drawn)
6. CN[C@H](Cc1ccccc1)C(=O)N1CCC[C@H]1C(=O)N[C@@H](Cc1ccc(C(=N)N)cc1)C(=O)c1nc2ccccc2s1
7. N=C(N)NCCCCC(=O)c1nc2ccccc2s1

["> 1 µM", "0.095 µM", "1.5 µM", "13 µM", "0.46 µM", "> 1 µM", "> 300 µM"]
